experiment: In vivo pharmacokinetic study in SD rats; conditions: Sprague-Dawley, rat, po, 20 mg/kg
Parameter: half-life

(Q) Return value of half-life for input Nc1ccc(S(=O)(=O)N2CCN(CC(=O)N[C@@H](Cc3cc(F)cc(F)c3)c3nc4ccccc4c(=O)n3-c3ccc(S(=O)(=O)N4CCOCC4)cc3)C(=O)C2)cc1 [21a2] , no commentary.
(A) 2.02 h

====

test: in vitro; conditions: human, microsomes, % Remaining (NCF = 60 min)
remaining at 1 h values for the compounds below.
Quick note: give the figure in %, leave out the unit.

Nc1ccc(S(=O)(=O)N2CCN(CC(=O)N[C@@H](Cc3cc(F)cc(F)c3)c3nc4ccccc4c(=O)n3-c3ccc(S(=O)(=O)N4CCOCC4)cc3)C(=O)C2)cc1 [21a2]    94.4

// below: remaining at 1 h requested for another compound
(Q) Return value of remaining at 1 h for input COc1ccc(-n2c([C@H](Cc3cc(F)cc(F)c3)NC(=O)CN3CCN(S(=O)(=O)c4ccc(N)cc4)CC3=O)nc3ccccc3c2=O)cc1 [12a2] , no commentary.
(A) 107

====

biological target: CPSF6 peptide binding to hexameric HIV-1 CA NL4.3 protein (Human immunodeficiency virus type 1, UniProt P12493)
Parameter: IC50

Nc1ccc(S(=O)(=O)N2CCN(CC(=O)N[C@@H](Cc3cc(F)cc(F)c3)c3nc4ccccc4c(=O)n3-c3ccc(S(=O)(=O)N4CCOCC4)cc3)C(=O)C2)cc1 [21a2]    163 nM

// below: IC50 requested for another compound
(Q) Return value of IC50 for input COc1ccc(-n2c([C@H](Cc3cc(F)cc(F)c3)NC(=O)CN3CCN(S(=O)(=O)c4ccc(N)cc4)CC3=O)nc3ccccc3c2=O)cc1 [12a2] , no commentary.
(A) 189 nM

====

assay: in vitro; conditions: human, microsomes
Parameter: CLint scaled at 1 h, 1 µM

(Q) Return value of CLint scaled at 1 h, 1 µM for input COc1ccc(N(C)C(=O)[C@H](Cc2ccccc2)NC(=O)Cc2c(C)[nH]c3ccccc23)cc1 [PF74, reference compound] , no commentary.
(A) 1900 mL/min/kg

====

system: HIV-1 IIIB; assay: Anti-HIV-1 activity in MT-4 cells; format: cell-based; conditions: HIV-1 IIIB, MT-4 cells
Parameter: SI IIIB (CC50/EC50)

COc1ccc(-n2c([C@H](Cc3cc(F)cc(F)c3)NC(=O)CN3CCN(S(=O)(=O)c4ccc([N+](=O)[O-])cc4)CC3=O)nc3ccccc3c2=O)cc1    >320.51
COc1ccc(-n2c([C@H](Cc3ccccc3)NC(=O)CN3CCN(S(=O)(=O)c4ccc(N)cc4)CC3=O)nc3cc(F)ccc3c2=O)cc1    >223.21
COc1ccc(-n2c([C@H](Cc3cc(F)cc(F)c3)NC(=O)CN3CCN(S(=O)(=O)c4ccc([N+](=O)[O-])cc4)CC3=O)nc3cc(S(C)(=O)=O)ccc3c2=O)cc1    >83.89

(Q) Return value of SI IIIB (CC50/EC50) for input COc1ccc(-n2c([C@H](Cc3cc(F)cc(F)c3)NC(=O)CN3CCN(S(=O)(=O)c4ccc([N+](=O)[O-])cc4)CC3=O)nc3cc(Br)ccc3c2=O)cc1 , no commentary.
(A) >156.25

(Q) Return value of SI IIIB (CC50/EC50) for input O=C(CN1CCN(S(=O)(=O)c2ccc([N+](=O)[O-])cc2)CC1=O)N[C@@H](Cc1ccccc1)c1nc2ccccc2c(=O)n1-c1ccc(S(=O)(=O)N2CCOCC2)cc1 , no commentary.
(A) >126.26

(Q) Return value of SI IIIB (CC50/EC50) for input O=C(CN1CCN(S(=O)(=O)c2ccc([N+](=O)[O-])cc2)CC1=O)N[C@@H](Cc1cc(F)cc(F)c1)c1nc2ccccc2c(=O)n1-c1ccc(S(=O)(=O)N2CCOCC2)cc1 , no commentary.
(A) >892.86

(Q) Return value of SI IIIB (CC50/EC50) for input Nc1ccc(S(=O)(=O)N2CCN(CC(=O)N[C@@H](Cc3ccccc3)c3nc4ccccc4c(=O)n3-c3ccc(S(=O)(=O)N4CCS(=O)(=O)CC4)cc3)C(=O)C2)cc1 , no commentary.
(A) >75.76

(Q) Return value of SI IIIB (CC50/EC50) for input COc1ccc(-n2c([C@H](Cc3ccccc3)NC(=O)CN3CCN(S(=O)(=O)c4ccc([N+](=O)[O-])cc4)CC3=O)nc3ccccc3c2=O)cc1 , no commentary.
(A) >119.05

(Q) Return value of SI IIIB (CC50/EC50) for input Nc1ccc(S(=O)(=O)N2CCN(CC(=O)N[C@@H](Cc3cc(F)cc(F)c3)c3nc4ccccc4c(=O)n3-c3ccc(S(=O)(=O)N4CCOCC4)cc3)C(=O)C2)cc1 , no commentary.
(A) >1329.79

====

system: MT-4 cells; assay: Cytotoxicity in uninfected MT-4 cells; assay type: cell-based
Parameter: CC50

Examples from the recorded data:
COc1ccc(-n2c([C@H](Cc3cc(F)cc(F)c3)NC(=O)CN3CCN(S(=O)(=O)c4ccc([N+](=O)[O-])cc4)CC3=O)nc3cc(Br)ccc3c2=O)cc1    > 154 µM
COc1ccc(-n2c([C@H](Cc3ccccc3)NC(=O)CN3CCN(S(=O)(=O)c4ccc(N)cc4)CC3=O)nc3cc(F)ccc3c2=O)cc1    > 183 µM
Nc1ccc(S(=O)(=O)N2CCN(CC(=O)N[C@@H](Cc3cc(F)cc(F)c3)c3nc4ccccc4c(=O)n3-c3ccc(S(=O)(=O)N4CCS(=O)(=O)CC4)cc3)C(=O)C2)cc1    > 144 µM
COc1ccc(-n2c([C@H](Cc3ccccc3)NC(=O)CN3CCN(S(=O)(=O)c4ccc([N+](=O)[O-])cc4)CC3=O)nc3cc(S(C)(=O)=O)ccc3c2=O)cc1    > 161 µM

(Q) Return value of CC50 for input COc1ccc(-n2c([C@H](Cc3cc(F)cc(F)c3)NC(=O)CN3CCN(S(=O)(=O)c4ccc(N)cc4)CC3=O)nc3cc(Cl)ccc3c2=O)cc1 , no commentary.
(A) > 170 µM

(Q) Return value of CC50 for input COc1ccc(-n2c([C@H](Cc3cc(F)cc(F)c3)NC(=O)CN3CCN(S(=O)(=O)c4ccc([N+](=O)[O-])cc4)CC3=O)nc3ccccc3c2=O)cc1 , no commentary.
(A) > 171 µM

(Q) Return value of CC50 for input Nc1ccc(S(=O)(=O)N2CCN(CC(=O)N[C@@H](Cc3ccccc3)c3nc4ccccc4c(=O)n3-c3ccc(S(=O)(=O)N4CCS(=O)(=O)CC4)cc3)C(=O)C2)cc1 , no commentary.
(A) > 150 µM
